System: MDR1
Assay Remarks: MDCK-MDR1 permeability assay (BBB penetration potential)
Assay type: in vitro ADME
Assay Conditions: dog, MDCK-MDR1, pH 7.4, MDCK-MDR1: Efflux
Measured Parameter: efflux ratio at 120 min, 5 μM
Note: the reply should be a number with no unit written.

[[record]]
molecule = "O=c1cc(-c2ccc(-c3ccc(O[C@H]4C[C@@H]5CCC[C@@H](N5)[C@H]4F)nn3)c(O)c2)ccn1CF (single isomer, unassigned)"
measurement = 39


Ask: // lookup efflux ratio at 120 min, 5 μM for Cn1cc(-c2ccc(-c3ccc(O[C@H]4C[C@]5(C)CC[C@@](C)(N5)[C@H]4F)nn3)c(O)c2)cn1 (single isomer, unassigned)
Result: 4

Ask: Which efflux ratio at 120 min, 5 μM is listed for Cc1cc(-c2ccc(-c3ccc(O[C@@H]4C[C@H]5CCC[C@H](N5)[C@@H]4F)nn3)c(O)c2)ccn1 (single isomer, unassigned) ?
Result: 3

---

System: MDR1
Assay Remarks: MDCK-MDR1 permeability assay (BBB penetration potential)
Assay type: in vitro ADME
Assay Conditions: dog, MDCK-MDR1, pH 7.4, MDCK-MDR1: Papp B-A
Rule: measured Papp B→A at 120 min, 5 μM below 40 ×10⁻⁶ cm/s gets TRUE; anything equal to or greater than 40 ×10⁻⁶ cm/s gets FALSE.

Examples from the recorded data:
[[record]]
compound = "Cc1nc(-c2ccc(-c3ccc(O[C@H]4C[C@@H]5CCC[C@@H](N5)[C@H]4F)nn3)c(O)c2)cs1 (single isomer, unassigned)"
cat = "TRUE"

[[record]]
compound = "Cc1ncn(-c2ccc(-c3ccc(O[C@@H]4C[C@H]5CCC[C@H](N5)[C@@H]4F)nn3)c(O)c2)n1 (single isomer, unassigned)"
cat = "FALSE"

[[record]]
compound = "Cn1cc(-c2cc(O)c(-c3ccc(O[C@@H]4CC5CC[C@H](N5)[C@@H]4F)nn3)cn2)cn1 (single isomer, unassigned)"
cat = "TRUE"


Ask: Just wondering, is Papp B→A at 120 min, 5 μM of Cn1cc(-c2ccc(-c3ccc(O[C@H]4C[C@]5(C)CCC[C@@](C)(N5)[C@H]4F)nn3)c(O)c2)cn1 (single isomer, unassigned) below 40 ×10⁻⁶ cm/s?
Result: TRUE

Ask: Hi there! Is Papp B→A at 120 min, 5 μM for Oc1cc(-c2nncs2)ccc1-c1ccc(O[C@H]2C[C@@H]3CCC[C@@H](N3)[C@H]2F)nn1 (single isomer, unassigned) below 40 ×10⁻⁶ cm/s, do you know?
Result: FALSE

Ask: Below 40 ×10⁻⁶ cm/s on Papp B→A at 120 min, 5 μM? Entry Oc1cc(-c2nnco2)c(F)cc1-c1ccc(O[C@@H]2C[C@H]3CC[C@H](N3)[C@@H]2F)nn1 (stereo in doubt) [142-ENT1]
Result: FALSE

Ask: # strict comparison: is reported Papp B→A at 120 min, 5 μM < 40 ×10⁻⁶ cm/s? input = Cn1ccc2cc(O)c(-c3ccc(O[C@H]4C[C@]5(C)CC[C@@](C)(N5)[C@H]4F)nn3)cc2c1=O (single isomer, unassigned)
Result: FALSE

Ask: Would you kindly verify if Papp B→A at 120 min, 5 μM of Cn1cc(-c2ccc(-c3ccc(O[C@H]4C[C@@H]5CCC[C@@H](N5)[C@H]4F)nn3)c(O)c2F)cn1 (single isomer, unassigned) is strictly less than 40 ×10⁻⁶ cm/s?
Result: TRUE

Ask: Strictly below 40 ×10⁻⁶ cm/s in Papp B→A at 120 min, 5 μM? Oc1cc2cccnc2cc1-c1ccc(O[C@H]2C[C@@H]3CCC[C@@H](N3)[C@H]2F)nn1 (single isomer, unassigned)
Result: TRUE

Ask: Say whether its Papp B→A at 120 min, 5 μM is strictly beneath 40 ×10⁻⁶ cm/s. Entry: Oc1cc(-c2ccccn2)ccc1-c1ccc(O[C@@H]2C[C@H]3CCC[C@H](N3)[C@@H]2F)nn1 (single isomer, unassigned)
Result: TRUE

Ask: Confirm or reject: Papp B→A at 120 min, 5 μM of Cn1cnc2cc(O)c(-c3ccc(O[C@@H]4C[C@@]5(C)CCC[C@](C)(N5)[C@@H]4F)nn3)cc2c1=O (single isomer, unassigned) lies strictly below 40 ×10⁻⁶ cm/s
Result: FALSE

Ask: API: query returns whether the compound falls strictly under 40 ×10⁻⁶ cm/s in Papp B→A at 120 min, 5 μM. Query: Oc1cc(-c2ccn3cnnc3c2)ccc1-c1ccc(O[C@H]2C[C@@H]3CCC[C@@H](N3)[C@H]2F)nn1 (single isomer, unassigned)
Result: TRUE
